Values from ChEMBL document CHEMBL1131884

System: Mus musculus
experiment-notes: In vivo antibacterial activity against MSSA MB 2985 strain at the dose ~4 *10e7 cfu in brain heart broth along with antibiotic by administration at 0 hour in mice
Format: functional
experimental-endpoint: MIC (ng/mL)
Give bare numbers, in ng/mL.

Task: So what's the measured MIC for this one? C[C@@H](O)[C@H]1C(=O)N2C(C(=O)O)=C(SCCNC=N)C[C@H]12 [IMIPENEM ANHYDROUS]
Result: 8

Report MIC for every entry below.
1. C[C@@H](O)[C@H]1C(=O)N2C(C(=O)[O-])=C(c3ccc4c(c3)-c3ccc(C[N+]56CC[N+](CC(N)=O)(CC5)CC6)cc3C4=O)[C@H](C)[C@H]12.[Cl-]
2. C[C@@H](O)[C@H]1C(=O)N2C(C(=O)[O-])=C(c3ccc4c(c3)-c3ccc(C[n+]5ccn(C)c5)cc3C4=O)C[C@H]12

Result:
1: 31; 2: 8

---

measured-on: MecA (Staphylococcus aureus, UniProt Q7DHH4)
Sequence (Q7DHH4 whole entry): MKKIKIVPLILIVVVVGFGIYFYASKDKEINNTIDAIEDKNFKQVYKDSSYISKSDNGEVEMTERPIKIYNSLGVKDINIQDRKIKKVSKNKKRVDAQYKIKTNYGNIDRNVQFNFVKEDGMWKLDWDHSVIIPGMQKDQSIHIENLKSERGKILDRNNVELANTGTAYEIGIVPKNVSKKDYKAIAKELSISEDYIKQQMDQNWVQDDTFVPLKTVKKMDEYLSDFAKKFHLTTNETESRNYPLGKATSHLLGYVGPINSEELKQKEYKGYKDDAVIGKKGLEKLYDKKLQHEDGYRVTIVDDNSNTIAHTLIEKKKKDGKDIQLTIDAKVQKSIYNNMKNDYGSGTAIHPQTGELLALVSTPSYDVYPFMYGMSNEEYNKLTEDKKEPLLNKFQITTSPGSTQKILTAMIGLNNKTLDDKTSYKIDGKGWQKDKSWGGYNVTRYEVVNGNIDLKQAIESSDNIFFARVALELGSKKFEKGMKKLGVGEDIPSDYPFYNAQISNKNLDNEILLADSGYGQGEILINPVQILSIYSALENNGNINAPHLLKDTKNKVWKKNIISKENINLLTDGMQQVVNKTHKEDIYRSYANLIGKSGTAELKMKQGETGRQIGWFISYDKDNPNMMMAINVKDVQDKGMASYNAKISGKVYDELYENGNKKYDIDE
experiment-notes: Binding affinity against PBP2a receptor by competition analysis with [3H]benzylpenicillin using cell membrane fractions from the MRSA COL strain.
Would you kindly list pIC50 for each of these compounds?
Numbers only, as −log10 of the molar value.

Task: Reported pIC50 for MecA (Staphylococcus aureus, UniProt Q7DHH4), given CC(=O)c1ccc(NC(=O)C[N+]23CC[N+](Cc4ccc5c(c4)C(=O)c4ccc(C6=C(C(=O)O)N7C(=O)[C@H]([C@@H](C)O)[C@H]7[C@H]6C)cc4-5)(CC2)CC3)cc1.[Cl-].[Cl-] ?
Result: 5.50

Task: Identify the measured pIC50 of CNC(=O)C[N+]12CC[N+](Cc3ccc4c(c3)C(=O)c3ccc(C5=C(C(=O)O)N6C(=O)[C@H]([C@@H](C)O)[C@H]6[C@H]5C)cc3-4)(CC1)CC2.[Cl-].[Cl-] for MecA (Staphylococcus aureus, UniProt Q7DHH4).
Result: 6.30

Task: Recall the recorded pIC50 for CCC[N+]12CC[N+](Cc3ccc4c(c3)C(=O)c3ccc(C5=C(C(=O)O)N6C(=O)[C@H]([C@@H](C)O)[C@H]6[C@H]5C)cc3-4)(CC1)CC2.[Cl-].[Cl-] with MecA (Staphylococcus aureus, UniProt Q7DHH4) and state it.
Result: 6.04

Task: Fill in the recorded pIC50 for this compound, with MecA (Staphylococcus aureus, UniProt Q7DHH4) as test system: C[C@@H](O)[C@H]1C(=O)N2C(C(=O)O)=C(SCCN=CN)C[C@H]12 [IMIPENEM ANHYDROUS]
Result: 3.48

Task: Reported pIC50 for MecA (Staphylococcus aureus, UniProt Q7DHH4), given C[C@@H](O)[C@H]1C(=O)N2C(C(=O)O)=C(c3ccc4c(c3)-c3ccc(C[N+]56CC[N+](C)(CC5)CC6)cc3C4=O)C[C@H]12.[Cl-].[Cl-] ?
Result: 6.51

# batch: return pIC50 for each of the 3 compounds below
1. C[C@@H](O)[C@H]1C(=O)N2C(C(=O)O)=C(c3ccc4c(c3)-c3ccc(C[N+]56CC[N+](CC(=O)Nc7ccccc7C(N)=O)(CC5)CC6)cc3C4=O)[C@H](C)[C@H]12.[Cl-].[Cl-]
2. C[C@@H](O)[C@H]1C(=O)N2C(C(=O)O)=C(c3ccc4c(c3)-c3ccc(C[N+]56CC[N+](CCOc7ccccc7)(CC5)CC6)cc3C4=O)[C@H](C)[C@H]12.[Cl-].[Cl-]
3. C[C@@H](O)[C@H]1C(=O)N2C(C(=O)[O-])=C(c3ccc4c(c3)-c3ccc(C[N+]56CC[N+](CC(N)=O)(CC5)CC6)cc3C4=O)[C@H](C)[C@H]12.[Cl-]

Result:
1: 5.99; 2: 6.25; 3: 5.88
